Values compiled from BigSolDB 2.1.

# settings: in methanol, 308.15 K
parameter: solubility (mole fraction)

1. CCOC(=O)OC1=C(c2cc(C)ccc2C)C(=O)NC12CCC(OC)CC2 (stereo unspecified) | 0.0202

====

# settings: in ethanol, 283.15 K
parameter: solubility (mole fraction)

1) CCOC(=O)OC1=C(c2cc(C)ccc2C)C(=O)NC12CCC(OC)CC2 (stereo unspecified) | 0.00386

====

# settings: in ethanol, 298.15 K
parameter: solubility (mole fraction)

1) CCOC(=O)OC1=C(c2cc(C)ccc2C)C(=O)NC12CCC(OC)CC2 (stereo unspecified) | 0.008

====

# settings: in isopropanol, 298.15 K
parameter: solubility (mole fraction)

1) CCOC(=O)OC1=C(c2cc(C)ccc2C)C(=O)NC12CCC(OC)CC2 (stereo unspecified) | 0.00543
